- experiment summary: clinical
- test parameters: both, human, plasma, po, 1.5 mg, F (%) absolute bioavailability, 1.5 mg naloxone HCl single oral dose; based on AUCt; mean (SD)
Where a name gives a salt, the structure may show the parent alone.
property label: bioavailability (%)

INSERT INTO results (molecule, endpoint_value) VALUES
  ('C=CCN1CC[C@]23c4c5ccc(O)c4O[C@H]2C(=O)CC[C@@]3(O)[C@H]1C5 [Naloxone HCl, naloxone hydrochloride]', 0.47);

----------
- experiment summary: clinical
- test parameters: both, human, plasma, oral
Where a name gives a salt, the structure may show the parent alone.
property label: Cmax

INSERT INTO measurements (molecule, endpoint_value) VALUES
  ('C=CCN1CC[C@]23c4c5ccc(O)c4O[C@H]2C(=O)CC[C@@]3(O)[C@H]1C5 [Naloxone HCl, naloxone hydrochloride]', '2.13 pg/mL');

----------
- experiment summary: clinical
- test parameters: both, human, plasma, iv, 0.5 mg
Where a name gives a salt, the structure may show the parent alone.
property label: AUC(0-inf) (ng·h/mL)

INSERT INTO results (molecule, property_label, endpoint_value) VALUES
  ('C=CCN1CC[C@]23c4c5ccc(O)c4O[C@H]2C(=O)CC[C@@]3(O)[C@H]1C5 [Naloxone HCl, naloxone hydrochloride]', 'AUC(0-inf)', 3.05);

----------
- experiment summary: clinical
- test parameters: both, human, plasma, oral
Counter-ions that a name gives are not always drawn.
property label: half-life (h)

INSERT INTO measurements (molecule, property_label, unit_of_measurement, endpoint_value) VALUES
  ('C=CCN1CC[C@]23c4c5ccc(O)c4O[C@H]2C(=O)CC[C@@]3(O)[C@H]1C5 [Naloxone HCl, naloxone hydrochloride]', 'half-life', 'h', 4.3);

----------
- experiment summary: clinical
- test parameters: both, human, plasma, oral
Where a name gives a salt, the structure may show the parent alone.
property label: Tmax (h)

INSERT INTO measurements (compound, property_label, endpoint_value) VALUES
  ('C=CCN1CC[C@]23c4c5ccc(O)c4O[C@H]2C(=O)CC[C@@]3(O)[C@H]1C5 [Naloxone HCl, naloxone hydrochloride]', 'Tmax', 3.35);

----------
- experiment summary: clinical
- test parameters: both, human, plasma, iv, 0.5 mg, AUCt, plasma naloxone; 0.5 mg IV naloxone HCl; fasted healthy subjects; arithmetic mean (SD)
Where a name gives a salt, the structure may show the parent alone.
property label: AUC(0-t) (ng·h/mL)

INSERT INTO measurements (molecule, endpoint_value) VALUES
  ('C=CCN1CC[C@]23c4c5ccc(O)c4O[C@H]2C(=O)CC[C@@]3(O)[C@H]1C5 [Naloxone HCl, naloxone hydrochloride]', 3.2);

----------
- experiment summary: clinical
- test parameters: both, human, plasma, po, 1.5 mg, Cmax, plasma naloxone; 1.5 mg naloxone HCl single oral dose; 18 subjects; arithmetic mean (SD)
Structures can show the parent of a compound that is named as a salt.
property label: Cmax (ng/mL)

INSERT INTO assay_data (compound, unit_of_measurement, endpoint_value) VALUES
  ('C=CCN1CC[C@]23c4c5ccc(O)c4O[C@H]2C(=O)CC[C@@]3(O)[C@H]1C5 [Naloxone HCl, naloxone hydrochloride]', 'ng/mL', 0.023);

----------
- experiment summary: clinical
- test parameters: both, human, plasma, iv, 0.5 mg, Cmax, plasma naloxone; 0.5 mg IV naloxone HCl; arithmetic mean (SD)
Where a name gives a salt, the structure may show the parent alone.
property label: Cmax (ng/mL)

INSERT INTO assay_data (compound, property_label, endpoint_value) VALUES
  ('C=CCN1CC[C@]23c4c5ccc(O)c4O[C@H]2C(=O)CC[C@@]3(O)[C@H]1C5 [Naloxone HCl, naloxone hydrochloride]', 'Cmax', 6.25);

----------
- experiment summary: clinical
- test parameters: both, human, plasma, po, 1.5 mg, F (%) absolute bioavailability, 1.5 mg naloxone HCl oral divided doses; based on AUCt; mean (SD)
Counter-ions that a name gives are not always drawn.
property label: bioavailability (%)

INSERT INTO measurements (molecule, property_label, endpoint_value) VALUES
  ('C=CCN1CC[C@]23c4c5ccc(O)c4O[C@H]2C(=O)CC[C@@]3(O)[C@H]1C5 [Naloxone HCl, naloxone hydrochloride]', 'bioavailability', 0.66);

----------
- experiment summary: clinical
- test parameters: both, human, plasma, iv, 0.5 mg
Where a name gives a salt, the structure may show the parent alone.
property label: clearance (mL/min)

INSERT INTO results (compound, endpoint_value) VALUES
  ('C=CCN1CC[C@]23c4c5ccc(O)c4O[C@H]2C(=O)CC[C@@]3(O)[C@H]1C5 [Naloxone HCl, naloxone hydrochloride]', 2850);

----------
- experiment summary: clinical
- test parameters: both, human, plasma, po, 1.5 mg, Cmax, plasma naloxone; 1.5 mg naloxone HCl oral divided doses; arithmetic mean (SD)
Where a name gives a salt, the structure may show the parent alone.
property label: Cmax (ng/mL)

INSERT INTO measurements (compound, endpoint_value) VALUES
  ('C=CCN1CC[C@]23c4c5ccc(O)c4O[C@H]2C(=O)CC[C@@]3(O)[C@H]1C5 [Naloxone HCl, naloxone hydrochloride]', 0.0134);

----------
- experiment summary: clinical
- test parameters: both, human, plasma, po, absolute bioavailability of naloxone, all three oral treatments studied
Counter-ions that a name gives are not always drawn.
property label: bioavailability

INSERT INTO assay_data (compound, property_label, endpoint_value) VALUES
  ('C=CCN1CC[C@]23c4c5ccc(O)c4O[C@H]2C(=O)CC[C@@]3(O)[C@H]1C5 [Naloxone HCl, naloxone hydrochloride]', 'bioavailability', '< 1%');

----------
- experiment summary: clinical
- test parameters: both, human, plasma, po, 1.5 mg, AUCt, plasma naloxone; 1.5 mg naloxone HCl oral divided doses (0, 3, 6, 9 h); arithmetic mean (SD)
Counter-ions that a name gives are not always drawn.
property label: AUC(0-t)

INSERT INTO results (compound, property_label, endpoint_value) VALUES
  ('C=CCN1CC[C@]23c4c5ccc(O)c4O[C@H]2C(=O)CC[C@@]3(O)[C@H]1C5 [Naloxone HCl, naloxone hydrochloride]', 'AUC(0-t)', '0.0649 ng·h/mL');

----------
- experiment summary: clinical
- test parameters: both, human, plasma, po, 1.5 mg, tmax, plasma naloxone; 1.5 mg naloxone HCl single oral dose; 18 subjects; arithmetic mean (SD)
Where a name gives a salt, the structure may show the parent alone.
property label: Tmax (min)

INSERT INTO results (compound, property_label, endpoint_value) VALUES
  ('C=CCN1CC[C@]23c4c5ccc(O)c4O[C@H]2C(=O)CC[C@@]3(O)[C@H]1C5 [Naloxone HCl, naloxone hydrochloride]', 'Tmax', 46.8);
